B1: MFF (parent)
chain: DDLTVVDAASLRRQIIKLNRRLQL

# Variants of: B1
# measurement_protocol: protein stability index of a GFP-peptide fusion (GPS, HEK-293T) (PSI 1-6); higher = more stable;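 note: lentivirally expressed fusions sorted by FACS into six bins by GFP to DsRed ratio, PSI derived from sequencing read proportions per bin multiplied by bin number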
# run_conditions: c terminus: a fixed tail appended
assay_metric: protein stability index

| monomer_sequence | assay_metric | recorded_value |
| --- | --- | --- |
| DDLTVVDAASLRRQRIKLNRRLQL [I15R] | protein stability index | 3.71 |
| DDLTVVDAASLRRQIAKLNRRLQL [I16A] | protein stability index | 2.48 |
| DYLTVVDAASLRRQIIKLNRRLQL [D2Y] | protein stability index | 2 |
| DDLTVVDAASLRRQIIQLNRRLQL [K17Q] | protein stability index | 1.57 |
| DDLTVVDAASLRRQIIKLNNRLQL [R20N] | protein stability index | 2.4 |
| DDLTVVDAASLRRQIIKLNRRYQL [L22Y] | protein stability index | 2.7 |
| DDLTVVDAASLRIQIIKLNRRLQL [R13I] | protein stability index | 1.41 |
| DDLTVVDAASLRRQIIKLNRALQL [R21A] | protein stability index | 1.57 |
| DDLTVVDAASLRRQIIKLNRRLQG [L24G] | protein stability index | 2.56 |
